Study system: Gonadotropin-releasing hormone receptor (Rattus norvegicus) (UniProt P30969)
Sequence (P30969 whole entry): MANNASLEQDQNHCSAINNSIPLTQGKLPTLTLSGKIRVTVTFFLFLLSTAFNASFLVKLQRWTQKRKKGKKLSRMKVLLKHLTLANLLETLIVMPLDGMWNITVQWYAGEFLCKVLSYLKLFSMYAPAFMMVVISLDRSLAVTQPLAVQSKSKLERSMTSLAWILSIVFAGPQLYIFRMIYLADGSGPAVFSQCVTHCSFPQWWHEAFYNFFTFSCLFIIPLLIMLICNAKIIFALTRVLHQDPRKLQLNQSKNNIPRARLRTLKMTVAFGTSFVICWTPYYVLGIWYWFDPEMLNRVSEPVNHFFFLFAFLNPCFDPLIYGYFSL
Run description: Antiovulatory activity on proestrus was measured by administering as a solution in 50% propylene glycol / 0.9% saline in rat
Format: functional
Square brackets hold non-standard residues; d marks the D form. Peptide text beside a SMILES is read from it. dPhe(4-Cl) = N[C@H](Cc1ccc(Cl)cc1)C(=O)O
Quantity: ED50 (ug injection-1)
Response field accepts a number only; no unit should be typed.

Answered examples (4):
[
  {
    "Compound": "CC(=O)N[C@H](Cc1ccc(Cl)cc1)C(=O)N[C@H](Cc1ccc(Cl)cc1)C(=O)N[C@H](Cc1c[nH]c2ccccc12)C(=O)N[C@@H](CO)C(=O)N[C@@H](Cc1ccc(O)cc1)C(=O)N[C@H](CCCN=C(N)N)C(=O)N[C@@H](CC(C)C)C(=O)N[C@@H](CCCN=C(N)N)C(=O)N1CCC[C@H]1C(=O)N[C@H](C)C(N)=O (Ac-[dPhe(4-Cl)][dPhe(4-Cl)][dW]SY[dR]LRP[dA]-NH2)",
    "Study system": "Gonadotropin-releasing hormone receptor (Rattus norvegicus) (UniProt P30969)",
    "ED50 (ug injection-1)": 1.7
  },
  {
    "Compound": "CCNC(=NCCCC[C@H](NC(=O)[C@H](CO)NC(=O)[C@@H](Cc1c[nH]c2ccccc12)NC(=O)[C@@H](Cc1ccc(Cl)cc1)NC(=O)[C@@H](Cc1ccc2ccccc2c1)NC(C)=O)C(=O)N[C@H](Cc1ccc(O)cc1)C(=O)N[C@@H](Cc1c[nH]c2ccccc12)C(=O)N[C@@H](CCCN=C(N)N)C(=O)N1CCC[C@H]1C(=O)N[C@H](C)C(N)=O)NCC",
    "Study system": "Gonadotropin-releasing hormone receptor (Rattus norvegicus) (UniProt P30969)",
    "ED50 (ug injection-1)": 11.5
  },
  {
    "Compound": "CCNC(=NCCCC[C@@H](NC(=O)[C@H](Cc1ccc(O)cc1)NC(=O)[C@H](CO)NC(=O)[C@@H](Cc1c[nH]c2ccccc12)NC(=O)[C@@H](Cc1ccc(Cl)cc1)NC(=O)[C@@H](Cc1ccc2ccccc2c1)NC(C)=O)C(=O)N[C@@H](CC(C)C)C(=O)N[C@@H](CCCN=C(N)N)C(=O)N1CCC[C@H]1C(=O)NCC(N)=O)NCC",
    "Study system": "Gonadotropin-releasing hormone receptor (Rattus norvegicus) (UniProt P30969)",
    "ED50 (ug injection-1)": 2
  },
  {
    "Compound": "CCCNC(=NCCCC[C@@H](NC(=O)[C@H](Cc1ccc(O)cc1)NC(=O)[C@H](CO)NC(=O)[C@@H](Cc1ccc2ccccc2c1)NC(=O)[C@@H](Cc1ccc(F)cc1)NC(=O)[C@@H](Cc1ccc2ccccc2c1)NC(C)=O)C(=O)N[C@@H](CC(C)C)C(=O)N[C@@H](CCCN=C(N)N)C(=O)N1CCC[C@H]1C(=O)NCC(N)=O)NCCC",
    "Study system": "Gonadotropin-releasing hormone receptor (Rattus norvegicus) (UniProt P30969)",
    "ED50 (ug injection-1)": 7.5
  }
]

Next item in the queue.
Form: compound = CCNC(=NCCCC[C@@H](NC(=O)[C@H](Cc1ccc(O)cc1)NC(=O)[C@H](CO)NC(=O)[C@@H](Cc1c[nH]c2ccccc12)NC(=O)[C@@H](Cc1ccc(F)cc1)NC(=O)[C@@H](Cc1ccc2ccccc2c1)NC(C)=O)C(=O)N[C@@H](CC(C)C)C(=O)N[C@@H](CCCN=C(N)N)C(=O)N1CCC[C@H]1C(=O)N[C@H](C)C(N)=O)NCC ; ED50 (ug injection-1) = 0.4
